assayed.system: Protein deacetylase HDAC6 (Mus musculus, UniProt Q9Z2V5)
Sequence (Q9Z2V5 whole entry): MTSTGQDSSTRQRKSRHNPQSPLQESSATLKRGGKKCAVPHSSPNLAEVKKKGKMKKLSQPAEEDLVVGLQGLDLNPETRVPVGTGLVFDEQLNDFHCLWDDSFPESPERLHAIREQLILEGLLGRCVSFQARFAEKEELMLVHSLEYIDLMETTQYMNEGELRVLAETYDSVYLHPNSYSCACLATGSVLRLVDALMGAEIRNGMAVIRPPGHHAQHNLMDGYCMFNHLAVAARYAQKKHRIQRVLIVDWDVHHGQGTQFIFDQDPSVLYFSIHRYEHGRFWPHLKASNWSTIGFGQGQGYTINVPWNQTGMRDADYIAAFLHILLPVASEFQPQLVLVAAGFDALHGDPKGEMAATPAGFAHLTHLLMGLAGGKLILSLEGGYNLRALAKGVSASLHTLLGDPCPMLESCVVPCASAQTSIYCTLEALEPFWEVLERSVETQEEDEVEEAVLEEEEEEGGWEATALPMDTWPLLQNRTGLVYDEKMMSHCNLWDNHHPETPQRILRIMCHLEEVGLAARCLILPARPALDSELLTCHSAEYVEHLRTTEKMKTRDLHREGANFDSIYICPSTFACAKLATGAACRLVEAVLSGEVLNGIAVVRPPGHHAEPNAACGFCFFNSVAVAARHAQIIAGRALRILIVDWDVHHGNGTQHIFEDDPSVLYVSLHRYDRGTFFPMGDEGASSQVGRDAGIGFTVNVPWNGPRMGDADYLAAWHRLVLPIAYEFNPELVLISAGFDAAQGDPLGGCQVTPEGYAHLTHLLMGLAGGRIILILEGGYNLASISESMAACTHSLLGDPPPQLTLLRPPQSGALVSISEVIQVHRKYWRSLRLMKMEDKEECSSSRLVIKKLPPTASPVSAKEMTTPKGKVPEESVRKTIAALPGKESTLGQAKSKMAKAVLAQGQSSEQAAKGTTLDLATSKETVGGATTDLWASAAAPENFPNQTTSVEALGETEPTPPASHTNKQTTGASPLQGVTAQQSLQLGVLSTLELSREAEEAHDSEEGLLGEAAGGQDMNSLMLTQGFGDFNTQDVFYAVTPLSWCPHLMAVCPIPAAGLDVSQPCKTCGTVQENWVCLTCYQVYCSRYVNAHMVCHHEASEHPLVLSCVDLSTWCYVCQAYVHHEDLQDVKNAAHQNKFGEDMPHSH
protocol.details: Inhibition of mouse HDAC6 expressed in human 293T cells using Ac-KGLGK(Ac)-MCA as substrate after 30 mins by fluorescence assay
quantity.measured: pIC50
Give only the number. pIC50 is defined as minus log10 of concentration in molar units.

compound="CC[C@H](C)[C@H]1NC(=O)[C@H]2CSSCC/C=C/[C@H](CC(=O)N[C@H](CCSC)C(=O)N2)OC(=O)C[C@@H]1O [THAILANDEPSIN A]" quantity_measured=pIC50 quantitative_readout=6.00

For CSCC[C@H]1NC(=O)C[C@H]2/C=C/CCSSC[C@@H](NC1=O)C(=O)N[C@H](C(C)C)[C@@H](O)CC(=O)O2 , what is its reported pIC50? 5.70

###

protocol.details: Selectivity index, ratio of IC50 for mouse HDAC6 to IC50 for human HDAC1
quantity.measured: Ratio IC50

Consider the worked cases shown below.
molecule=CC(C)[C@H]1NC(=O)[C@H]2CSSCC/C=C/[C@H](CC(=O)N[C@H](C)C(=O)N2)OC(=O)C[C@@H]1O result=485
molecule="CC[C@H](C)[C@H]1NC(=O)[C@H]2CSSCC/C=C/[C@H](CC(=O)N[C@H](CCSC)C(=O)N2)OC(=O)C[C@@H]1O [THAILANDEPSIN A]" result=992
molecule=CSCC[C@H]1NC(=O)C[C@H]2/C=C/CCSSC[C@@H](NC1=O)C(=O)N[C@H](C(C)C)[C@@H](O)CC(=O)O2 result=1640

Switching to the query record.
For CCC(C)[C@H]1NC(=O)[C@H]2CSSCC/C=C/[C@H](CC(=O)N[C@H](C)C(=O)N2)OC(=O)C[C@@H]1O (some centres undefined) , what is its reported Ratio IC50? 636

Provenance of the data: ChEMBL document CHEMBL3124849
